This collection of values is drawn from the supplement of paper PMC10567573.

B1: SPDEF (parent)
chain: YPEDSSWAAKAPGASSREEPPEEP

- Variants of: B1
- Measurement Description: protein stability index of a GFP-peptide fusion (GPS, HEK-293T) (PSI 1-6); higher = more stable;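 note: lentivirally expressed fusions sorted by FACS into six bins by GFP to DsRed ratio, PSI derived from sequencing read proportions per bin multiplied by bin number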
- Measurement Conditions: c terminus: a fixed tail appended
Measured Property: protein stability index

Mutation Notation | Result Number
P24R | 3.86
S15V | 2.7
A9D | 5.61
R17A | 3.11
K10I | 3.65
E23F | 3.89
P12Q | 4.18
S16K | 4.51
E18H | 3.86
P21A | 3.63
A11S | 4.01
A14P | 3.94
S5P | 4.06
E19V | 4.48
W7F | 5.86
S15E | 4.14
P21N | 4.12
S5T | 4.55
P2I | 2.53
G13N | 4.22
P21L | 4.04
D4T | 2.39
E22K | 3.88
D4N | 2.4
E3G | 2.72
E23N | 3.58
S16C | 3.83
A9W | 3.11
K10H | 3.26
E3R | 3.78
E22T | 4.31
E23Y | 3.65
G13P | 3.94
E18C | 2.82
P2H | 2.25
S6A | 3.6
K10S | 3.69
